These measurements were taken from ChEMBL document CHEMBL4052736.

system: Candida albicans; assay: Antifungal activity against Candida albicans assessed as zone of inhibition at 25 ug/ml measured after 24 hrs by well diffusion method; type: functional; conditions: read-out: IZ
Tag: true (1) if measured zone of inhibition at 25 µg/mL is not below 10 mm, false (0) if it is.

1) Clc1ccc(/C=N/Nc2nc(-c3ccccc3)cs2)c(Cl)c1 true (1)
2) COC(=O)c1cc(-c2csc(N/N=C/c3ccc(Cl)cc3Cl)n2)ccc1OCc1ccccc1 true (1)
3) Clc1ccc(-c2csc(N/N=C/c3cccs3)n2)cc1 true (1)
4) COc1ccc(-c2csc(N/N=C/c3ccc(Cl)cc3Cl)n2)cc1 false (0)
5) OC(Cn1cncn1)(Cn1cncn1)c1ccc(F)cc1F true (1)
6) Cc1ccc(-c2csc(N/N=C/c3ccc(Cl)cc3Cl)n2)cc1 false (0)
7) Fc1ccc(-c2csc(N/N=C/c3cccs3)n2)cc1 true (1)
8) COC(=O)c1cc(-c2csc(N/N=C/c3cccs3)n2)ccc1OCc1ccccc1 false (0)
9) Cc1ccc(-c2csc(N/N=C/c3cccs3)n2)cc1 true (1)
10) C(=N\Nc1nc(-c2ccccc2)cs1)/c1cccs1 false (0)

====

assay: Antioxidant activity assessed as DPPH free radical scavenging activity at 20 ug/ml after 15 mins by spectrophotometric method; assay type: functional
Tag: Yes if measured inhibition is not below 90%, No if it is.

1) COc1ccc(-c2csc(N/N=C/c3ccc(Cl)cc3Cl)n2)cc1 No
2) Clc1ccc(/C=N/Nc2nc(-c3ccccc3)cs2)c(Cl)c1 No
3) Clc1ccc(-c2csc(N/N=C/c3cccs3)n2)cc1 Yes
4) Clc1ccc(-c2csc(N/N=C/c3ccc(Cl)cc3Cl)n2)cc1 No
5) COC(=O)c1cc(-c2csc(N/N=C/c3cccs3)n2)ccc1OCc1ccccc1 Yes
6) O=C1O[C@H]([C@@H](O)CO)C(O)=C1O Yes
7) O=C(O)Cc1ccccc1Nc1c(Cl)cccc1Cl Yes
8) Cc1ccc(-c2csc(N/N=C/c3ccc(Cl)cc3Cl)n2)cc1 No
9) C(=N\Nc1nc(-c2ccccc2)cs1)/c1cccs1 Yes
10) COC(=O)c1cc(-c2csc(N/N=C/c3ccc(Cl)cc3Cl)n2)ccc1OCc1ccccc1 No

====

test: Antioxidant activity assessed as H2O2 free radical scavenging activity at 20 ug/ml after 10 to 15 mins by spectrophotometric analysis; type: functional
Readings of inhibition for the listed compounds
Property name: inhibition

1) COC(=O)c1cc(-c2csc(N/N=C/c3ccc(Cl)cc3Cl)n2)ccc1OCc1ccccc1 58.9%
2) COC(=O)c1cc(-c2csc(N/N=C/c3cccs3)n2)ccc1OCc1ccccc1 79.6%
3) Clc1ccc(-c2csc(N/N=C/c3cccs3)n2)cc1 82.8%
4) COc1ccc(-c2csc(N/N=C/c3ccc(Cl)cc3Cl)n2)cc1 78.1%
5) Cc1ccc(-c2csc(N/N=C/c3ccc(Cl)cc3Cl)n2)cc1 76.2%
6) Fc1ccc(-c2csc(N/N=C/c3cccs3)n2)cc1 84.2%
7) Clc1ccc(/C=N/Nc2nc(-c3ccccc3)cs2)c(Cl)c1 78.1%
8) Clc1ccc(-c2csc(N/N=C/c3ccc(Cl)cc3Cl)n2)cc1 76%
9) Fc1ccc(-c2csc(N/N=C/c3ccc(Cl)cc3Cl)n2)cc1 88.4%
10) C(=N\Nc1nc(-c2ccccc2)cs1)/c1cccs1 87.5%
11) Cc1ccc(-c2csc(N/N=C/c3cccs3)n2)cc1 79.6%
12) O=C1O[C@H]([C@@H](O)CO)C(O)=C1O 93.4%

====

tested on: Candida albicans; experiment: Antifungal activity against Candida albicans assessed as zone of inhibition at 50 ug/ml measured after 24 hrs by well diffusion method; assay type: functional; details: read-out: IZ
Readings of zone of inhibition at 50 µg/mL for the listed compounds

Compound	zone of inhibition at 50 µg/mL (mm)
Fc1ccc(-c2csc(N/N=C/c3cccs3)n2)cc1	14
Fc1ccc(-c2csc(N/N=C/c3ccc(Cl)cc3Cl)n2)cc1	11
COC(=O)c1cc(-c2csc(N/N=C/c3cccs3)n2)ccc1OCc1ccccc1	8
Cc1ccc(-c2csc(N/N=C/c3cccs3)n2)cc1	14
Clc1ccc(-c2csc(N/N=C/c3cccs3)n2)cc1	14
C(=N\Nc1nc(-c2ccccc2)cs1)/c1cccs1	10
Clc1ccc(-c2csc(N/N=C/c3ccc(Cl)cc3Cl)n2)cc1	15
OC(Cn1cncn1)(Cn1cncn1)c1ccc(F)cc1F [FLUCONAZOLE]	22
COC(=O)c1cc(-c2csc(N/N=C/c3ccc(Cl)cc3Cl)n2)ccc1OCc1ccccc1	10
Clc1ccc(/C=N/Nc2nc(-c3ccccc3)cs2)c(Cl)c1	14
COc1ccc(-c2csc(N/N=C/c3ccc(Cl)cc3Cl)n2)cc1	6
Cc1ccc(-c2csc(N/N=C/c3ccc(Cl)cc3Cl)n2)cc1	6

====

assay: Antioxidant activity assessed as DPPH free radical scavenging activity at 40 ug/ml after 15 mins by spectrophotometric method; type: functional
Readings of inhibition for the listed compounds
Property name: inhibition (%)

1) Clc1ccc(-c2csc(N/N=C/c3ccc(Cl)cc3Cl)n2)cc1 85.9
2) Clc1ccc(-c2csc(N/N=C/c3cccs3)n2)cc1 96
3) COC(=O)c1cc(-c2csc(N/N=C/c3cccs3)n2)ccc1OCc1ccccc1 94.9
4) O=C1O[C@H]([C@@H](O)CO)C(O)=C1O 94.6
5) Fc1ccc(-c2csc(N/N=C/c3cccs3)n2)cc1 93.3
6) Clc1ccc(/C=N/Nc2nc(-c3ccccc3)cs2)c(Cl)c1 90.2
7) C(=N\Nc1nc(-c2ccccc2)cs1)/c1cccs1 95.8
8) COC(=O)c1cc(-c2csc(N/N=C/c3ccc(Cl)cc3Cl)n2)ccc1OCc1ccccc1 37.2
9) Fc1ccc(-c2csc(N/N=C/c3ccc(Cl)cc3Cl)n2)cc1 93.3
10) Cc1ccc(-c2csc(N/N=C/c3ccc(Cl)cc3Cl)n2)cc1 86.2
11) COc1ccc(-c2csc(N/N=C/c3ccc(Cl)cc3Cl)n2)cc1 69.5
12) Cc1ccc(-c2csc(N/N=C/c3cccs3)n2)cc1 97

====

experiment: Antioxidant activity assessed as DPPH free radical scavenging activity at 100 ug/ml after 15 mins by spectrophotometric method; type: functional
Property name: inhibition (%)

1. COc1ccc(-c2csc(N/N=C/c3ccc(Cl)cc3Cl)n2)cc1 93.3
2. Fc1ccc(-c2csc(N/N=C/c3cccs3)n2)cc1 97
3. O=C1O[C@H]([C@@H](O)CO)C(O)=C1O 97
4. Fc1ccc(-c2csc(N/N=C/c3ccc(Cl)cc3Cl)n2)cc1 96
5. COC(=O)c1cc(-c2csc(N/N=C/c3cccs3)n2)ccc1OCc1ccccc1 96.3
6. C(=N\Nc1nc(-c2ccccc2)cs1)/c1cccs1 96.8
7. Cc1ccc(-c2csc(N/N=C/c3ccc(Cl)cc3Cl)n2)cc1 95.1
8. Clc1ccc(/C=N/Nc2nc(-c3ccccc3)cs2)c(Cl)c1 95.8
9. Cc1ccc(-c2csc(N/N=C/c3cccs3)n2)cc1 98.1
10. COC(=O)c1cc(-c2csc(N/N=C/c3ccc(Cl)cc3Cl)n2)ccc1OCc1ccccc1 56.1
11. Clc1ccc(-c2csc(N/N=C/c3ccc(Cl)cc3Cl)n2)cc1 92.4
12. Clc1ccc(-c2csc(N/N=C/c3cccs3)n2)cc1 97

====

tested on: Aspergillus flavus; assay: Antifungal activity against Aspergillus flavus assessed as zone of inhibition at 25 ug/ml measured after 24 hrs by well diffusion method; type: functional; conditions: read-out: IZ
Readings of zone of inhibition at 25 µg/mL for the listed molecules
Property name: zone of inhibition at 25 µg/mL

1) Clc1ccc(-c2csc(N/N=C/c3ccc(Cl)cc3Cl)n2)cc1 12 mm
2) C(=N\Nc1nc(-c2ccccc2)cs1)/c1cccs1 8 mm
3) COC(=O)c1cc(-c2csc(N/N=C/c3ccc(Cl)cc3Cl)n2)ccc1OCc1ccccc1 6 mm
4) Cc1ccc(-c2csc(N/N=C/c3ccc(Cl)cc3Cl)n2)cc1 6 mm
5) Fc1ccc(-c2csc(N/N=C/c3ccc(Cl)cc3Cl)n2)cc1 8 mm
6) OC(Cn1cncn1)(Cn1cncn1)c1ccc(F)cc1F 15 mm
7) Clc1ccc(/C=N/Nc2nc(-c3ccccc3)cs2)c(Cl)c1 12 mm
8) COc1ccc(-c2csc(N/N=C/c3ccc(Cl)cc3Cl)n2)cc1 6 mm
9) Clc1ccc(-c2csc(N/N=C/c3cccs3)n2)cc1 8 mm
10) Cc1ccc(-c2csc(N/N=C/c3cccs3)n2)cc1 6 mm
11) Fc1ccc(-c2csc(N/N=C/c3cccs3)n2)cc1 6 mm
12) COC(=O)c1cc(-c2csc(N/N=C/c3cccs3)n2)ccc1OCc1ccccc1 6 mm

====

assay: Antioxidant activity assessed as H2O2 free radical scavenging activity at 60 ug/ml after 10 to 15 mins by spectrophotometric analysis; assay type: functional
Readings of inhibition for the listed molecules

Molecule	inhibition, %
Clc1ccc(-c2csc(N/N=C/c3cccs3)n2)cc1	85.2
Cc1ccc(-c2csc(N/N=C/c3cccs3)n2)cc1	84.4
Fc1ccc(-c2csc(N/N=C/c3cccs3)n2)cc1	90.3
O=C1O[C@H]([C@@H](O)CO)C(O)=C1O [ASCORBIC ACID]	95.5
Fc1ccc(-c2csc(N/N=C/c3ccc(Cl)cc3Cl)n2)cc1	92.4
COC(=O)c1cc(-c2csc(N/N=C/c3cccs3)n2)ccc1OCc1ccccc1	84.4
COc1ccc(-c2csc(N/N=C/c3ccc(Cl)cc3Cl)n2)cc1	82.8
Cc1ccc(-c2csc(N/N=C/c3ccc(Cl)cc3Cl)n2)cc1	83.2
C(=N\Nc1nc(-c2ccccc2)cs1)/c1cccs1	91
Clc1ccc(/C=N/Nc2nc(-c3ccccc3)cs2)c(Cl)c1	80.4
COC(=O)c1cc(-c2csc(N/N=C/c3ccc(Cl)cc3Cl)n2)ccc1OCc1ccccc1	66.3
Clc1ccc(-c2csc(N/N=C/c3ccc(Cl)cc3Cl)n2)cc1	80.4
